# Test system: MKL-1
# assayInfo: qHTS assay to identify novel small-molecules to repurpose for Merkel cell carcinoma treatment (AID 1296009); also: nearly all actives have a fitted effect of over 60% in size; also: potency is read from the fitted curve at half-maximal effect
# experimentalSetup: MCC and control cell lines, CellTiter-Glo viability, 72 h; series mostly up to 46 µM
Inconclusive results are not listed. Active and inactive are the calls of the source. Calls follow the shape of the dose curve; as a rule, active = well fitted inhibition curve with a large enough effect; inconclusive = small, poorly fitted or top-dose-only effect; inactive = flat fitted curve, though single readings scatter.
readout: Potency

Answered examples (4):
Incoming: // query Potency value for entry CC(=O)OCC1=C(C(=O)O)N2C(=O)[C@@H](N)[C@@H]2SC1
Outgoing: inactive

Incoming: # repeat for CC[C@@H]1[C@@H](C)O[C@@](O)([C@@H](C)[C@H](O)[C@H](C)[C@H]2OC(=O)C=CC=C[C@@H](C)[C@@H]([C@@H](C)[C@@H](O)[C@H](C)[C@@]3(O)C[C@H](O[C@H]4C[C@H](O)[C@H](O)[C@H](C)O4)[C@H](CC)[C@@H](C)O3)OC(=O)C=CC=C[C@@H]2C)C[C@H]1O[C@H]1C[C@H](O)[C@H](O)[C@H](C)O1
Outgoing: 14.8 µM (active)

Incoming: Again, but for CC(C)(C)[C@]1(O)C[C@@H]2OC(=O)C[C@@]23C(=O)O[C@@H]2OC(=O)[C@H](O)C213 (stereo not given in full)
Outgoing: inactive

Incoming: Can you handle CC[N+]1(CCOC(=O)C(O)(c2ccccc2)c2ccccc2)CCCCC1 next?
Outgoing: inactive

Below: the item to evaluate.
Incoming: Would you mind telling me what Potency value was observed for COc1ccc2c(c[n+](C)c3c4cc5c(cc4ccc23)OCO5)c1OC ?
Outgoing: 2.35 µM (active)
